Data provenance: patent US20150087577A1

Item-by-item account of IC50 (nM) Ca2+ assay (method 2)
# Tested Target: human CXCR4 (human, UniProt P61073 1-352)
# Sequence (P61073 whole entry): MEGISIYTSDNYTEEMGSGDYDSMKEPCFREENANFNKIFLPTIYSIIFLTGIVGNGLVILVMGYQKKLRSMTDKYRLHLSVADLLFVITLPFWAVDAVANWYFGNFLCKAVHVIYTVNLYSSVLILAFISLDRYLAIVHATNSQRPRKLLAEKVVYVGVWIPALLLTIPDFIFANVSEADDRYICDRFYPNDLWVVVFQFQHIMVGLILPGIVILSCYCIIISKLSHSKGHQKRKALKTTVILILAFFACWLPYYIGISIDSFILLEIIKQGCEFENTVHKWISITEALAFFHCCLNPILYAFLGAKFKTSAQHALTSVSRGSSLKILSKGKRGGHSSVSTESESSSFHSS
# Protocol Text: cell-based or functional assay
Bridges are numbered along the chain shown (N, C = ends). [ ]: non-standard residue; d: D form. 2Nal = N[C@@H](Cc1ccc2ccccc2c1)C(=O)O; Cit = NC(=O)NCCC[C@H](N)C(=O)O
The answer is to be given in nM; state only the numeric part.

cyclo(IR[Cit]CRG[dP]RR[2Nal]CYQK[dP]P) (disulfide 4-11; SMILES CC[C@H](C)[C@@H]1NC(=O)[C@@H]2CCCN2C(=O)[C@H]2CCCN2C(=O)[C@H](CCCCN)NC(=O)[C@H](CCC(N)=O)NC(=O)[C@H](Cc2ccc(O)cc2)NC(=O)[C@@H]2CSSC[C@H](NC(=O)[C@H](CCCNC(N)=O)NC(=O)[C@H](CCCNC(=N)N)NC1=O)C(=O)N[C@@H](CCCNC(=N)N)C(=O)NCC(=O)N1CCC[C@@H]1C(=O)N[C@@H](CCCNC(=N)N)C(=O)N[C@@H](CCCNC(=N)N)C(=O)N[C@@H](Cc1ccc3ccccc3c1)C(=O)N2) [Example 65] :: 3.9

Data request: Report IC50 (nM) Ca2+ assay (method 2) for cyclo(YRECRG[dP]RR[2Nal]CYQK[dP]P) (disulfide 4-11; SMILES N=C(N)NCCC[C@@H]1NC(=O)[C@@H]2CSSC[C@H](NC(=O)[C@H](Cc3ccc4ccccc4c3)NC(=O)[C@H](CCCNC(=N)N)NC(=O)[C@H](CCCNC(=N)N)NC(=O)[C@H]3CCCN3C(=O)CNC1=O)C(=O)N[C@@H](Cc1ccc(O)cc1)C(=O)N[C@@H](CCC(N)=O)C(=O)N[C@@H](CCCCN)C(=O)N1CCC[C@@H]1C(=O)N1CCC[C@H]1C(=O)N[C@@H](Cc1ccc(O)cc1)C(=O)N[C@@H](CCCNC(=N)N)C(=O)N[C@@H](CCC(=O)O)C(=O)N2) [Example 75] please.
Data returned: 3.5
